- Tested on: Huh-7 cells
- Assay: Metabolic disposition of [^14C]-Compound 1 and [^14C]-2′-C-methyl guanosine in Huh-7 cells (incubation medium, cellular extracts, nucleotide levels)
- Format: in vitro ADME, human
- Applied conditions: Huh7; 10 μM [^14C]-2′-C-methyl guanosine; 48 h
Quantity kind: Major metabolites observed in cellular extracts (% of total radioactivity)

Compound | Meas value
C[C@@]1(O)[C@H](O)[C@@H](COP(=O)(O)OP(=O)(O)OP(=O)(O)O)O[C@H]1n1cnc2c(=O)[nH]c(N)nc21 | 7.18 % of total radioactivity
C[C@@]1(O)[C@H](O)[C@@H](CO)O[C@H]1n1cnc2c(=O)[nH]c(N)nc21 [2′-C-methyl guanosine, 9-(2-C-methyl-β-D-ribofuranosyl)guanine, reference compound] | 89.3 % of total radioactivity

Shifting focus to the compound that follows.
Query :: Data request, read-out Major metabolites observed in cellular extracts (% of total radioactivity), for C[C@@]1(O)[C@H](O)[C@@H](COP(=O)(O)OP(=O)(O)O)O[C@H]1n1cnc2c(=O)[nH]c(N)nc21
Result :: 3.56 % of total radioactivity
